endpoint name: melting point

These recorded examples may help you get a feel for the data.
• COc1ccccc1S(=O)(=O)OCC(=O)c1ccccc1 = 88 °C
• CCOC(=O)c1cnc(N(C)Cc2cc3nc(-c4cccc(OCCO)c4)nc(N4CCOCC4)c3s2)nc1 = 216 to 220 °C
• Cc1cccc(NC(=O)NCC(=O)N(CC(=O)OC(C)(C)C)c2ccccc2F)c1 = 148 °C
• O=C1C(=Cn2ccnc2)C(c2ccc(Cl)cc2)c2ccc(Cl)cc21 (stereo not given) = 204 to 205 °C
• Cc1cc(C(F)(C(F)(F)F)C(F)(F)F)ccc1NC1OC(=O)c2cccc(Cl)c21 (stereo not given) = 229 to 231 °C

Need melting point for each of these compounds.
1. Cc1ccc(C2=C(c3ccc(S(N)(=O)=O)cc3)CCC2)cn1
2. CC12CC(N3CCC4(CC3)OCCO4)C(O)CC1CCC1C2CCC2(C)C(O)C(N3CCC(O)CC3)CC12 (stereo not given)
3. Nc1ccc(F)cc1-c1nc[nH]n1

Result:
["108 to 110 °C", "253 to 255 °C", "142 to 144 °C"]

Need melting point for each of these compounds.
1. COc1ccc(C(=O)CN(C)C(=O)/C=C/c2cccnc2)cc1OC
2. CCOc1noc2c1CN(C(=O)OC)CCC2
3. COc1ccc(-c2coc3cc(OC)cc(OC)c3c2=O)c(OC)c1
4. CN(C)S(=O)(=O)NCc1ccc(C(c2cc(F)ccc2F)S(=O)(=O)c2ccc(Cl)cc2)nc1 (stereo not given)

Result:
193 to 194 °C
51.5 to 52 °C
202 to 204 °C
177 to 178 °C

Need melting point for each of these compounds.
1. COc1ccc(-c2nc(N)ncc2-c2ccc(=O)[nH]n2)cc1F
2. CCCCCCCC(=O)Nc1cc(Cc2c(Cl)cccc2Cl)nc(Nc2ccc(C#N)cc2)n1
3. N#CC1CC(C#N)(c2ccc(OC(F)F)c(OCC3CC3)c2)CCC1=O (stereo not given)
4. CS(=O)(=O)Cc1ccc(Oc2cc(OC3CCOCC3)c3[nH]c(C4=NCC(CC(N)=O)S4)cc3c2)cn1 (stereo not given)
5. CCc1ccc(COc2ccc(CC(NC(=O)c3cn4ccc(-c5ccc(Cl)cc5)cc4n3)C(=O)O)cc2)cc1 (stereo not given)

Result:
["250 °C", "135 to 137 °C", "142 to 143 °C", "164 to 167 °C", "245 °C"]

----------
endpoint name: melting point

These recorded examples may help you get a feel for the data.
- COc1cc(-c2nc(C)no2)cc2oc(=O)c(C)c(C)c12: 172 to 174 °C
- CN1C(=O)NC(c2ccccc2)c2cc3c(cc21)OCO3 (stereo not given): 228 to 230 °C
- CCOC(=O)C1=C(CO)NC(SC)=NC1c1ccccc1SC (stereo not given): 151 to 153 °C

Need melting point for each of these molecules.
1. CN1Cc2c(-c3nc(C4CC4)no3)ncn2-c2ccccc2C1=O
2. Cc1c(OCC(=O)O)ccc(-c2noc3ccccc23)c1C
3. CN(C)c1ccc(/C=C/c2cccc(F)c2)cc1
4. O=c1c2ccccc2nc2n1CCc1c-2[nH]c2ccc(Cl)cc12
5. C#CCN(c1ccc(C(=O)NC(CCc2nnn[nH]2)C(=O)O)cc1)C(C)c1cc2c(=O)[nH]c(C)nc2cc1C (stereo not given)

Result:
202 to 203 °C
146 to 152 °C
147 to 148 °C
310 to 312 °C
207 °C

Need melting point for each of these molecules.
1. CCOC(=O)c1cn(Cc2ccccc2)nc1OCc1ccc(OCc2nc(-c3ccco3)oc2C)c(O)c1
2. C=CC(=O)NCNC(=O)CCS(=O)(=O)Cl
3. CN(C(=O)C1=NN(c2ccc(Cl)cc2)C(c2ccc(Cl)cc2)C1)c1ccc(C(F)(F)F)cc1 (stereo not given)
4. CC(C)c1noc2c1C(=O)N(C(C)(C)C)C2=O

Result:
1. 134 to 135 °C
2. 192 °C
3. 181 to 183 °C
4. 60 to 62 °C

Need melting point for each of these molecules.
1. CCn1c(C)nc2c(C(=O)OC)c(C(=O)OC)ccc21
2. CC(C)c1csc(/C=C/c2cccc(NC(=O)Cc3ccccc3C(=O)O)c2)n1
3. CCCn1c(OCC2CC2(Cl)Cl)nc2sccc2c1=O (stereo not given)
4. COc1cc2c(cc1OC)-c1cc(Nc3c(C)cccc3C)nc(=O)n1CC2
5. CC(C)[Si](C(C)C)(C(C)C)n1cc(SC(=O)c2ccccc2)c(C(=O)c2ccccc2)c1
6. COc1c(Cl)ccc(-c2cc(N)c(OC(F)F)c(Cl)n2)c1F
7. CN1CCC(c2cccc3c2C[C@H](NC(=O)c2ccc(N4CCOCC4)cc2)CC3)CC1
8. Cc1cnc(NC(=O)Nc2ccc(N3CCN(C(=O)Nc4ccc(OCCO)cc4C(F)(F)F)CC3)cc2)s1

Result:
["127 to 128 °C", "203 to 204 °C", "64 to 66 °C", "297 to 299 °C", "120 to 122 °C", "152 to 154 °C", "196 to 198 °C", "118 to 120 °C"]

----------
endpoint name: melting point

These recorded examples may help you get a feel for the data.
* FC(F)(F)Oc1ccc(Cn2cnc3c(-c4ccco4)ncnc32)cc1 | 146 to 147 °C
* O=c1[nH]c(S)ncc1OC1CCCCO1 (stereo not given) | > 300 °C
* NC(=O)c1cc(=O)c(-c2ccccc2)co1 | 245 to 248 °C
* Cc1nc2sccn2c1C1=NNC(=O)OC1 | 294 °C
* CN1CCN(c2cccc3ccc(OC(=O)c4ccccc4)cc23)CC1 | 82 to 82.5 °C

Need melting point for each of these compounds.
1. CC(=O)N[C@@H]1c2cc(C#N)ccc2CC(C)(C)[C@H]1O (relative stereo)
2. O=[N+]([O-])c1ccccc1NCc1ccccc1
3. CC(=O)OC1CSC(Oc2ccccc2-c2ccncc2)C(OC(C)=O)C1OC(C)=O (stereo not given)
4. CCCCCC(O)C=CC1C(O)CC(=O)C1CCCCCCC(=O)Oc1ccc(-c2cc(=S)ss2)cc1 (stereo not given)
5. COc1ccccc1-c1ccccc1C1=NC(C)(C)CO1

Result:
203 to 205 °C
65 to 67 °C
165 °C
101 to 105 °C
129 to 131 °C

----------
Provide the reported melting point of each item.

* Cc1nc2c(-c3cccc(N4CCN(CCO)CC4)c3)cnn2c(N)c1-c1ccc(F)c(F)c1 | 172 to 174 °C
* CC(C)(C)CC(C)(C)NCC(O)COc1ccccc1C(=O)Nc1cccc2[nH]ccc12 (stereo not given) | 140 °C
* O=[N+]([O-])c1ccc(C2=NCCCN2)cc1 | 168 to 172 °C
* COc1cc(C)c2c(=O)c3c(OC)cccc3oc2c1OC | 158 °C
* O=[N+]([O-])c1cccc(C2=NOCCS2)c1 | 114 to 115 °C
* COC(=O)c1ccc(N2C(=O)C(O)=C(C(=O)c3ccc(C)cc3)C2c2ccc(C(C)C)cc2)nc1 (stereo not given) | 264 to 266 °C
* CCOC(=O)c1cnc2cc(C(C)(C)C)ccc2c1O | 279 to 281 °C
* CCc1nc2c(N)cccc2o1 | 46 °C
* CNC(=O)[C@@H](C[C@H](O)[C@H](CC1CCCCC1)NC(=O)[C@H](Cc1cscn1)NC(=O)OC(C)(C)C)C(C)(C)O | 203 to 205 °C

Problem: Quick one: melting point for O=C1CC2(CN1)CC(O)c1cc(Cl)ccc12 (stereo not given) ?
Result: 172 to 174 °C

----------
endpoint name: melting point (°C)
Answers are plain numbers, in °C.

These recorded examples may help you get a feel for the data.
• O=C1Nc2ccc(Cl)cc2C1(Cl)c1cccc(F)c1F (stereo not given) = 248
• O=C(N[C@H]1C[C@H](C(=O)O)Nc2cc(Cl)cc(Cl)c21)C(c1ccccc1)c1ccccc1 (relative stereo) = 238
• CCS(=O)(=O)c1ccc(C(=O)O)c(Cl)c1CBr = 103

Kindly consider the entry below.
Problem: Quick one: melting point for OC1(C2CC2)CSC(=S)N1c1ccccn1 (stereo not given) ?
Result: 95

----------
endpoint name: melting point

These recorded examples may help you get a feel for the data.
• CC1(C)CC(N2C(=O)C=CC2=O)CC(C)(C)N1 = 104 to 111 °C
• N=C(Nc1ccc(CCNCc2ccccc2Cl)cc1)c1cccs1 = 81 to 82 °C
• CN1C(C(=O)NC2CCC(O)CC2)C(c2cccc(Cl)c2F)C2(C(=O)Nc3cc(Cl)ccc32)C1CC(C)(C)C (stereo not given) = 188 °C

Need melting point for each of these compounds.
1. Cn1cc(OS(C)(=O)=O)c(=O)c2ccc(S(C)(=O)=O)cc21
2. COC(=O)C1(CCCN2CCN(c3ccccc3)CC2)Oc2ccccc2CCC1O (stereo not given)

Result:
["258 to 260 °C", "98 to 99 °C"]
